Test system: 323965-272-R-J2-PDC complex spheroid growth, % test/control;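 also: compound exposure lasted 7 days starting three days after spheroid seeding; 100% = DMSO vehicle control wells with viability set relative to vehicle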
experimentalProtocol: Anticancer human tumor 323965-272-R-J2-PDC patient-derived pancreatic carcinoma cell line growth inhibition [Asc]
particulars: second compound 0.316 µM; first compound 0.0949 µM; hits give low values
Reported viability, T/C is given for each of the following compounds.

{"compound": "CCN1C(C(=O)NC23CCC(C(=O)O)(CC2)CC3)C(c2cccc(Cl)c2F)C2(C(=O)Nc3cc(Cl)ccc32)C12CCCCC2 (stereo not drawn) + Cc1c(S(C)(=O)=O)c(-c2cc(F)cc(N3CCN(c4ccc(NS(=O)(=O)c5ccc(NC(CCN6CCC(C(=O)OCCCP(=O)(O)O)CC6)CSc6ccccc6)c(S(=O)(=O)C(F)(F)F)c5)cc4)CC3)c2)c(-c2ccc(Cl)cc2)n1C(C)C", "viability, T/C (%)": 94.5}
{"compound": "NC(=O)C(=Cn1cnc(-c2cc(C(F)(F)F)cc(C(F)(F)F)c2)n1)c1cncnc1 + Cc1c(S(C)(=O)=O)c(-c2cc(F)cc(N3CCN(c4ccc(NS(=O)(=O)c5ccc(NC(CCN6CCC(C(=O)OCCCP(=O)(O)O)CC6)CSc6ccccc6)c(S(=O)(=O)C(F)(F)F)c5)cc4)CC3)c2)c(-c2ccc(Cl)cc2)n1C(C)C", "viability, T/C (%)": 76.1}
{"compound": "Cc1nc(N2CCC3(CC2)COC(C)C3N)c(CO)nc1Sc1ccnc(N)c1Cl (stereo not drawn) + Cc1c(S(C)(=O)=O)c(-c2cc(F)cc(N3CCN(c4ccc(NS(=O)(=O)c5ccc(NC(CCN6CCC(C(=O)OCCCP(=O)(O)O)CC6)CSc6ccccc6)c(S(=O)(=O)C(F)(F)F)c5)cc4)CC3)c2)c(-c2ccc(Cl)cc2)n1C(C)C", "viability, T/C (%)": 76.1}
